Source listed as PubChem BioAssay AID1159580.

Test: chemical genetic growth profiling, strain panel (AID 1159580);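 also: tested at 20 µM; growth read once vehicle control cultures reached saturation at 30 °C; 1 = growth at the plate median or of vehicle wells; lower values mean less growth of the strain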
Details: S. cerevisiae deletion strains, growth OD, locus YIR030C, strain dcg1
The campaign covered roughly 5,500 compounds. About 2,000 (36%) were called active. Roughly 18% stayed inconclusive and do not appear here. Rule as the data show it: active = normalized growth mostly below about 0.91 (no sharp cut-off); inconclusive = no clear call, values can overlap the other calls; inactive = mostly above about 0.92. Some of the results follow.
Return exactly one item of active, inactive

Q: Please state the recorded outcome for this molecule: CCCC1O[C@@H]2CC3C4CCC5=CC(=O)C=CC5(C)C4[C@@H](O)CC3(C)[C@]2(C(=O)CO)O1 (some centres undefined)
A: inactive

Q: Entry `O=[N+]([O-])c1ccc(O)c([N+](=O)[O-])c1` : call = ?
A: active

Q: Test call for this molecule, please: `NCCNC(=O)c1ccc(Cl)cc1`
A: inactive

Q: Entry CC1(C)C(=O)C=CC2(C)C3CCC4(C)C(c5ccoc5)CC5OC54C3C(O)CC12 (centres undefined) : call = ?
A: inactive

Q: Lab log entry: `O=C1C=CC2=C3c4cc(O)c(O)cc4C[C@@]3(O)COC2=C1` — outcome as called in the assay?
A: inactive

Q: Call for entry `O=C(CCCCCCCCCCCCC1CCCC1)Nc1ccc(S(=O)(=O)c2ccc(NC(=O)CCCCCCCCCCCCC3CCCC3)cc2)cc1` :
A: inactive

Q: Dear colleague, could you share the recorded outcome for `C[n+]1cccc(C(=O)[O-])c1` when you have a moment?
A: inactive

Q: Per the records of this test, what outcome belongs to O=C1C=CC2=C3c4cc(O)c(O)cc4CC3(O)COC2=C1O (centres undefined) ?
A: inactive

Q: Name the outcome recorded for `O=[N+]([O-])c1cc([As](=O)(O)O)ccc1O` in the assay.
A: active

----------
Assay: chemical genetic growth profiling, strain panel (AID 1159580);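 also: tested at 20 µM; growth read once vehicle control cultures reached saturation at 30 °C; 1 = growth at the plate median or of vehicle wells; lower values mean less growth of the strain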
Conditions: S. cerevisiae deletion strains, growth OD, locus YML032C, strain rad52
About 2,000 (36%) of roughly 5,500 compounds were called active. Not shown: some 18% with an inconclusive outcome. Rule as the data show it: active = normalized growth mostly below about 0.91 (no sharp cut-off); inconclusive = no clear call, values can overlap the other calls; inactive = mostly above about 0.92. The list shows a part of the results.
I would appreciate it if you answered using one of these outcomes: label 1 for active, label 0 for inactive

Q: Each compound tested received a call. Report the one for `O[N+]1=CC=CCC1=S.On1ccccc1=S.[Zn]` .
A: label 1

Q: How did this test come out for CN1C(CC(=O)c2ccccc2)CCCC1CC(O)c1ccccc1 (stereo unspecified) ?
A: label 0

Q: Which outcome was assigned to `Oc1c(Br)cc(Br)c2cccnc12` in this test?
A: label 1

Q: Assay result, entry `c1ccc2c(c1)cc1ccc3cccc4ccc2c1c34` — outcome?
A: label 0

Q: I would be grateful if you could indicate the recorded call for `CCN(CC)CCNC(=O)c1cc(S(C)(=O)=O)ccc1OC` .
A: label 0

----------
Assay: chemical genetic growth profiling, strain panel (AID 1159580);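 also: tested at 20 µM; growth read once vehicle control cultures reached saturation at 30 °C; 1 = growth at the plate median or of vehicle wells; lower values mean less growth of the strain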
Conditions: S. cerevisiae deletion strains, growth OD, locus YCL069W, strain vba3, stronger effect = lower value
In all, about 5,500 compounds went through this assay and about 2,000 (36%) were called active. Inconclusive results (about 18%) are left out. The list shows a part of the results.
Listing of entries alongside the reported normalized growth.

Take a look at these entries with their results.
CCCC1O[C@@H]2CC3C4CCC5=CC(=O)C=CC5(C)C4[C@@H](O)CC3(C)[C@]2(C(=O)CO)O1 (stereo partly drawn) | 1.01 (inactive)
CN/C(=C\[N+](=O)[O-])NCCSCc1ccc(CN(C)C)o1 | 0.973 (inactive)
Nc1ncnc2c1ncn2C1O[C@H](COP(=O)(O)O)[C@@H](O)[C@H]1O (stereo partly drawn) | 0.996 (inactive)
O=C(O)CCCCC1CCSS1 (stereo not drawn) | 0.973 (inactive)
Cc1ccsc1/C=C/C1=NCCCN1C | 0.986 (inactive)
O=C1O[C@H](C(O)CO)C(O)=C1O (stereo partly drawn) | 0.997 (inactive)
COC(=O)C[C@H]1C(C)(C)C(=O)[C@@H]2CC3=C4CC(=O)O[C@@H](c5ccoc5)[C@]4(C)CCC3[C@@]1(C)C2=O (stereo partly drawn) | 0.987 (inactive)
CC(C)(C)NC[C@@H](O)COc1nsnc1N1CCOCC1 | 1.01 (inactive)

Next up:
// recorded normalized growth for NCC(O)c1ccc(O)cc1 (stereo not drawn) : 1 (inactive)
